Experiment: HEK293 cytotoxicity assay
Format: cell-based
Conditions: human, HEK293 cells
Readout: IC50 at 48 h
For clarity, give the value followed by its unit.

Per the record, `COc1ccc(C[C@H](N)C(=O)N[C@H]2[C@@H](O)[C@H](n3cnc4c(N(C)C)ncnc43)O[C@@H]2CO)cc1` has IC50 at 48 h of 797 nM

* * *

Tested on: P. falciparum Dd2
Assay: P. falciparum growth inhibition assay, [3H] hypoxanthine incorporation, Dd2 line
Assay type: cell-based
Conditions: Plasmodium falciparum, DD2, read-out: P. falciparum IC50 Dd2
Readout: pIC50
Reminder that pIC50 means the negative base-10 logarithm of the concentration expressed in mol/L.

Compound	Tested On	pIC50
CCN(CC)CCCC(C)Nc1ccnc2cc(Cl)ccc12 (stereo not shown)	P. falciparum Dd2	7.10
C/C=C1\NC(=O)[C@H]2CSSCC/C=C/[C@H](CC(=O)N[C@H](C(C)C)C(=O)N2)OC(=O)[C@H](C(C)C)NC1=O	P. falciparum Dd2	6.89
Cc1[nH]c2ccccc2c1CCNCc1ccc(/C=C/C(=O)NO)cc1	P. falciparum Dd2	7.52

Attention now shifts to the item below.
Per the record, `O=C(/C=C/c1cccc(S(=O)(=O)Nc2ccccc2)c1)NO` has pIC50 of 6.89

* * *

System: T. b. brucei 427 bloodstream trypanosomes
Test: T. b. brucei growth inhibition assay
Type: cell-based, Trypanosoma brucei brucei
Conditions: Trypanosoma brucei, in Homo sapiens, read-out: T. b. brucei IC90
Each entry below carries its recorded IC90.
Output spec: scalar in µM, unitless text.

Compound	Uom	Quantitative Readout
Cc1[nH]c2ccccc2c1CCNCc1ccc(/C=C/C(=O)NO)cc1	µM	3.28
O=C(/C=C/c1cccc(S(=O)(=O)Nc2ccccc2)c1)NO	µM	3.64
C/C=C1\NC(=O)[C@H]2CSSCC/C=C/[C@H](CC(=O)N[C@H](C(C)C)C(=O)N2)OC(=O)[C@H](C(C)C)NC1=O	µM	0.1

Per the record, O=C(CCCCCCC(=O)Nc1ccccc1)NO [Vorinostat, suberoylanilide hydroxamic acid] has IC90 of 18.7

* * *

Each entry below carries its recorded inhibition at 1 µM.
Biological target: recombinant PfHDAC1 (Plasmodium falciparum)
Sequence (Q7K6A1 1-449): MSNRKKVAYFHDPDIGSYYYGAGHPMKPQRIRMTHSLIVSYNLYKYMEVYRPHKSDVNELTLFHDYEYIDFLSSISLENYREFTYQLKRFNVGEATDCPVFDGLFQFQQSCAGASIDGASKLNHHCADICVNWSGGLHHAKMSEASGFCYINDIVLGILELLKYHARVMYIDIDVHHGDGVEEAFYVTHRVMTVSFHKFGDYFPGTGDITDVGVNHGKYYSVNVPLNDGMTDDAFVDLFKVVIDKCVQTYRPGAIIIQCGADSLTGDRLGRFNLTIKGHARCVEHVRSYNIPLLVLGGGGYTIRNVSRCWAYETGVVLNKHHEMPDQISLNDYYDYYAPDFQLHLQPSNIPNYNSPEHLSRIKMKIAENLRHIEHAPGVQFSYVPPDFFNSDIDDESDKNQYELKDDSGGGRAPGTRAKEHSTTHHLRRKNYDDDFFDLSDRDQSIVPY
Assay: Deacetylase activity assay, recombinant PfHDAC1
Assay type: biochemical
Conditions: read-out: PfHDAC1 % inhibition at 1 μM, 1 μM; mean (±SD) of two independent assays

Molecule	inhibition at 1 µM
Cc1[nH]c2ccccc2c1CCNCc1ccc(/C=C/C(=O)NO)cc1 [Panobinostat, panobinostat]	~100%

Per the record, O=C(CCCCCCC(=O)Nc1ccccc1)NO [Vorinostat, suberoylanilide hydroxamic acid] has inhibition at 1 µM of 59.8%

Per the record, C/C=C1\NC(=O)[C@H]2CSSCC/C=C/[C@H](CC(=O)N[C@H](C(C)C)C(=O)N2)OC(=O)[C@H](C(C)C)NC1=O [Romidepsin, romidepsin] has inhibition at 1 µM of 48.3%

Per the record, O=C(/C=C/c1cccc(S(=O)(=O)Nc2ccccc2)c1)NO [Belinostat, belinostat] has inhibition at 1 µM of 78.5%
